# assayedTarget: dopamine receptors
# testName: Inhibition of [^3 H] spiroperidol binding
# details: Table 1
reportedProperty: pIC50
Keep it numeric: pIC50 is minus log10 of the concentration in mol/L.

Consider the worked cases shown below.
- C1=C(c2ccccc2)CCN(C[C@@H]2CCC=C(c3cncnc3)C2)C1.Cl [Example 14, monohydrochloride]: 6.36
- C1=C(c2ccccc2)CCN(CC2CCC=C(c3ccccc3)C2)C1 (single isomer, unassigned; (+)) [Example 6]: 6.64

Next, consider the following compound.
Input line: If you can, please state the reported pIC50 value of Fc1ccc(C2=CC(CN3CC=C(c4ccccc4)CC3)CCC2)cc1 (racemic) .
Output line: 5.97

====

Quick list: pIC50 per entry.
# assayedTarget: dopamine receptors
# testName: Inhibition of [^3 H] spiroperidol binding
# details: Table 2
Keep it numeric: pIC50 is minus log10 of the concentration in mol/L.

- C1=C(c2ccccc2)CCC(CCN2CCN(c3ccccn3)CC2)C1 (racemic) [H, reference compound]: 6.39
- C1=C(c2ccccc2)CCC(CCN2CC=C(c3ccccc3)CC2)C1 (racemic) [Compound C, reference compound]: 5.10
- C1=C(c2ccccc2)CCN(CC2CCC=C(c3ccccc3)C2)C1 (racemic): 7.14
- C1=C(c2ccccc2)CCN(C2CCC=C(c3ccccc3)C2)C1 (racemic) [D, reference compound]: 5.04

Input line: If you can, please state the reported pIC50 value of C1=C(c2ccccc2)CCC(N2CCN(c3ccccn3)CC2)C1 (racemic) [F, reference compound] .
Output line: 6.22

Input line: Also need C1=C(c2ccccc2)CCC(N2CC=C(c3ccccc3)CC2)C1 (racemic) [A, reference compound] , thanks.
Output line: 5.97

Input line: Also need C1=C(c2ccccc2)CC(CN2CCN(c3ccccn3)CC2)CC1 (racemic) , thanks.
Output line: 6.85

Input line: Also need C1=C(c2ccccc2)CCC(CN2CC=C(c3ccccc3)CC2)C1 (racemic) [B, reference compound] , thanks.
Output line: 6.00

Input line: Also need C1=C(c2ccccc2)CC(N2CCN(c3ccccn3)CC2)CC1 (racemic) [Compound J, reference compound] , thanks.
Output line: 5.01

Input line: Also need C1=C(c2ccccc2)CCC(CN2CCN(c3ccccn3)CC2)C1 (racemic) [Compound G, reference compound] , thanks.
Output line: 4.95

====

# assayedTarget: dopamine receptors
# testName: Inhibition of [^3 H] spiroperidol binding
# details: Table 1
# Text: The compounds of Formula I are valuable dopaminergic agents. […]
Quick list: IC50 per entry.
Record the value in nM, omitting the unit from your answer.

Consider the worked cases shown below.
- Fc1ccc(C2=CC(CN3CCN(c4ccccn4)CC3)CCC2)cc1 (racemic) [Example 5a]: 279
- C1=C(c2ccccc2)CC(CN2CC=C(c3cccs3)CC2)CC1.Cl (racemic) [Example 24, monohydrochloride]: 170

Input line: If you can, please state the reported IC50 value of Fc1ccc(C2=CCC[C@@H](CN3CC=C(c4ccccc4)CC3)C2)cc1 [Example 8] .
Output line: 76

Input line: Also need C1=C(c2ccccc2)CCN(CC2CCC=C(c3ccccc3)C2)C1 (single isomer, unassigned; (-)) [Example 6a] , thanks.
Output line: 420

Input line: Also need C1=C(c2cccnc2)CCC[C@H]1CN1CC=C(c2ccccc2)CC1.Cl.Cl [Example 12a, dihydrochloride] , thanks.
Output line: 87

Input line: Also need Fc1ccc(C2=CCCC(CN3CC=C(c4ccccc4)CC3)C2)cc1 (racemic) [Example 3] , thanks.
Output line: 90

Input line: Also need C1=C(c2ccccc2)CC(CN2CCN(c3ccccc3)CC2)CC1.Cl.Cl (racemic) [Example 22, dihydrochloride] , thanks.
Output line: 424
